Read-out: Matrix Metallopeptidase 9 (MMP9), MMP9 (gene 4318)
Experiment: BSK_KF3CT_MMP9: BioMAP Diversity Plus: KF3CT Assay for Matrix Metallopeptidase 9 (MMP9) Biomarker Activity (AID 2283074)
Details: primary human keratinocytes with fibroblasts; actives raise or lower the signal
Calls of active or inactive are those of the source. How the source made its calls: active means hit-call score of the fitted dose curve at least 0.9, where 1 is the maximum; inactive means score below 0.9.
Could you please pick one outcome from this set? active, inactive

INSERT INTO assay_data (chemical_smiles, label_class) VALUES
  ('Nc1ccc2ccccc2c1', 'inactive'),
  ('N#Cc1c(-c2ccc(Cl)cc2)[nH]c(C(F)(F)F)c1Br', 'active'),
  ('Cc1ccc(N)cc1N', 'inactive');

Kindly review the next molecule as well.
Task item: Per the records of this test, what outcome belongs to `CCOc1ccc(C(C)(C)COCc2cccc(Oc3ccccc3)c2)cc1` ?
Reply: inactive

###

Test: ACEA_ER_AUC_viability: ACEA Biosciences xCELLigence Real-Time Cell Analysis on Estrogen Receptor Agonism for Viability (AID 2283782);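 further: continuous compound exposure with impedance area under curve over 80 h; hit means loss of impedance signal meaning reduced cell growth or viability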
Results filed as inconclusive are left out. Active and inactive are the calls of the source. The calls were made as follows: active = hit-call score of the fitted dose curve at least 0.9, where 1 is the maximum; inconclusive = response in the unintended direction; inactive = score below 0.9.
Could you please pick one outcome from this set? t (active), f (inactive)

Record excerpt, results attached:
INSERT INTO assay_data (molecule, label_class) VALUES
  ('c1ccc2c(c1)Nc1ccccc1S2', 'f'),
  ('O=S(=O)(F)C(F)(F)C(F)(F)C(F)(F)C(F)(F)C(F)(F)C(F)(F)C(F)(F)C(F)(F)F', 'f'),
  ('Nc1cc2c3c(c1)C(c1ccccc1)=N[C@@H](NC(=O)c1cccnc1)C(=O)N3CC2', 'f'),
  ('CC(C)(C)OOC(C)(C)C', 'f'),
  ('Cn1[nH]nnc1=S', 'f'),
  ('N#Cc1c(-c2ccc(Cl)cc2)[nH]c(C(F)(F)F)c1Br', 't'),
  ('CCOP(=O)(O)C(N)=O', 'f'),
  ('CC(Cc1ccc(OCC(=O)O)cc1)NCC(O)c1csc(C(F)(F)F)n1 (stereo not drawn)', 'f'),
  ('Oc1ccc(I)cc1', 't'),
  ('CCCCc1ccc(O)cc1', 't');

Task item: Per the records of this test, what outcome belongs to C=C(C)C(=O)OCC1CO1 (stereo not drawn) ?
Reply: f

Task item: Per the records of this test, what outcome belongs to `O=C(O)CF` ?
Reply: f

Task item: Per the records of this test, what outcome belongs to `CCOP(=S)(OCC)SCSc1ccc(Cl)cc1` ?
Reply: t

###

Read-out: Pselectin, SELP (gene 6403)
Assay: BSK_4H_Pselectin: BioMAP Diversity Plus: 4H Assay for Pselectin Biomarker Activity (AID 2283026)
Settings: primary human endothelial cells (HUVEC); actives raise or lower the signal
Activity calls are given as the source filed them. Rule for the calls: active = hit-call score of the fitted dose curve at least 0.9, where 1 is the maximum; inactive = score below 0.9.
Could you please pick one outcome from this set? active, inactive

INSERT INTO results (chemical_smiles, label_class) VALUES
  ('CCCCCCCc1ccc(O)cc1', 'active');

Task item: Per the records of this test, what outcome belongs to `O=C(O)C(F)(F)C(F)(F)C(=O)O` ?
Reply: inactive

###

Assay: CCTE_Shafer_MEA_dev_interburst_interval_mean: CCTE's Neural Network Formation Assay for Mean Interburst Interval, Shafer Lab (AID 2284046);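 further: well-mean interburst interval of bursting electrodes as AUC over four recording days; curve fitted for decrease in interburst interval relative to DMSO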
Active and inactive are the calls of the source. The calls were made as follows: active = hit-call score of the fitted dose curve at least 0.9, where 1 is the maximum; inactive = score below 0.9.
measured.attribute: outcome

INSERT INTO measurements (molecule, result) VALUES
  ('c1cc2c3c(cccc3c1)CC2', 'inactive'),
  ('CCCCC(CC)COP(=O)(Oc1ccccc1)Oc1ccccc1 (stereo not drawn)', 'inactive'),
  ('O=C(O)C(F)(F)C(F)(F)C(=O)O', 'inactive');

###

Experiment: ATG_GRE_CIS: Attagene CIS-FACTORIAL HepG2 Assay for human Glucocorticoid Response Elements (GRE) (AID 2282947)
Conditions: HepG2 GRE cis-reporter, Attagene multiplex mRNA; actives raise or lower the signal
Active and inactive are the calls of the source. The calls were made as follows: active = hit-call score of the fitted dose curve at least 0.9, where 1 is the maximum; inactive = score below 0.9.
Could you please pick one outcome from this set? true (1) = active, false (0) = inactive

Record excerpt, results attached:
INSERT INTO assay_data (molecule, label_class) VALUES
  ('CCCCc1ccc(O)cc1', 'false (0)'),
  ('CNC(=O)Oc1ccc(N(C)C)c(C)c1', 'false (0)'),
  ('C=CC(=O)OCC(CC)(COC(=O)C=C)COC(=O)C=C', 'false (0)'),
  ('CCCCC(CC)COC(=O)c1c(Br)c(Br)c(Br)c(Br)c1C(=O)OCC(CC)CCCC (stereo not given)', 'false (0)');

Kindly review the next molecule as well.
Task item: Per the records of this test, what outcome belongs to `Cc1cc(C)c(C(=O)P(=O)(c2ccccc2)c2ccccc2)c(C)c1` ?
Reply: true (1)

###

Read-out: Plasminogen activator inhibitor-1 (PAI1), SERPINE1 (gene 5054)
Experiment: BSK_MyoF_PAI1: BioMAP Diversity Plus: MyoF Assay for Plasminogen activator inhibitor-1 (PAI1) Biomarker Activity (AID 2284256);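 on outcome: PAI-1 protein level measured by ELISA in fibroblast cultures; PAI-1 read 24 h after compound addition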
Conditions: primary human lung fibroblasts
Active and inactive are the calls of the source. How the source made its calls: active means hit-call score of the fitted dose curve at least 0.9, where 1 is the maximum; inactive means score below 0.9.
Could you please pick one outcome from this set? active, inactive

Record excerpt, results attached:
INSERT INTO measurements (compound, label_class) VALUES
  ('C=CC(=O)OCC(CC)(COC(=O)C=C)COC(=O)C=C', 'active'),
  ('CCOP(=S)(OCC)SCn1nnc2ccccc2c1=O', 'inactive'),
  ('O=C(O)C(F)(F)C(F)(F)C(=O)O', 'inactive'),
  ('O=C(O)C(F)(F)OC(F)(F)C(F)(F)OC(F)(F)F', 'inactive'),
  ('OCC(F)(F)OC(F)(F)C(F)(F)OC(F)(F)CO', 'inactive');

Kindly review the next compound as well.
Task item: Per the records of this test, what outcome belongs to O=S1(=O)OCC2C(CO1)C1(Cl)C(Cl)=C(Cl)C2(Cl)C1(Cl)Cl (configuration not stated) ?
Reply: inactive

###

Assay: ATG_VDRE_CIS: Attagene CIS-FACTORIAL HepG2 Assay for human Vitamin D Receptor Element (VDRE) (AID 2282968)
Settings: HepG2 VDRE cis-reporter transcription, actives raise or lower the signal
The source made the active and inactive calls. How the source made its calls: active means hit-call score of the fitted dose curve at least 0.9, where 1 is the maximum; inactive means score below 0.9.
Could you please pick one outcome from this set? yes (1) = active, no (0) = inactive

Record excerpt, results attached:
INSERT INTO assay_data (compound, label_class) VALUES
  ('FC(F)(F)C(F)(C(F)(F)F)C(F)(F)C(F)(F)CC1CO1 (configuration not stated)', 'no (0)'),
  ('O=c1ssc(Cl)c1Cl', 'yes (1)'),
  ('N#Cc1c(-c2ccc(Cl)cc2)[nH]c(C(F)(F)F)c1Br', 'yes (1)');

Task item: Per the records of this test, what outcome belongs to `Oc1ccc(I)cc1` ?
Reply: no (0)

Task item: Per the records of this test, what outcome belongs to `Nc1ccc2ccccc2c1` ?
Reply: no (0)

Task item: Per the records of this test, what outcome belongs to `CCN(CC)C1CCCCC1` ?
Reply: no (0)

Task item: Per the records of this test, what outcome belongs to CCCCC(CC)COP(=O)(Oc1ccccc1)Oc1ccccc1 (configuration not stated) ?
Reply: yes (1)

Task item: Per the records of this test, what outcome belongs to `CCOC(=O)c1ccccc1N` ?
Reply: no (0)

Task item: Per the records of this test, what outcome belongs to `N#Cc1ccc(O)cc1` ?
Reply: no (0)

###

Assay: BSK_SAg_SRB: Viability Assessment in the BioMAP Diversity Plus: SAg Assay (AID 2283096);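 further: cells read one day after compound addition; hits may be either gain or loss of signal compared with DMSO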
Details: primary human HUVEC with PBMC
Activity calls are given as the source filed them. How the source made its calls: active means hit-call score of the fitted dose curve at least 0.9, where 1 is the maximum; inactive means score below 0.9.
Could you please pick one outcome from this set? active, inactive

Record excerpt, results attached:
INSERT INTO assay_data (molecule, label_class) VALUES
  ('ClC1=C(Cl)C2(Cl)C3C(Cl)C(Cl)CC3C1(Cl)C2(Cl)Cl (stereo not drawn)', 'active'),
  ('CCOP(=S)(OCC)SCn1nnc2ccccc2c1=O', 'inactive');

Task item: Per the records of this test, what outcome belongs to `CCC(C)(C)c1ccc(O)cc1` ?
Reply: inactive

Task item: Per the records of this test, what outcome belongs to `CCOP(=S)(S)OCC` ?
Reply: inactive

Task item: Per the records of this test, what outcome belongs to `CC(C)(C)c1ccc(O)cc1` ?
Reply: inactive

Task item: Per the records of this test, what outcome belongs to CCOP(=S)(NC(C)C)Oc1ccccc1C(=O)OC(C)C (stereo not drawn) ?
Reply: inactive

Task item: Per the records of this test, what outcome belongs to `CCOP(=S)(OCC)SCSc1ccc(Cl)cc1` ?
Reply: inactive

###

Assay: APR_HepG2_P-H2AX_24hr: Apredica 24-hour HepG2 Assay for H2AX Phosphorylation (AID 2282920)
Conditions: high-content imaging, actives raise or lower the signal
Calls of active or inactive are those of the source. The calls were made as follows: active = hit-call score of the fitted dose curve at least 0.9, where 1 is the maximum; inactive = score below 0.9.
Could you please pick one outcome from this set? active, inactive

Record excerpt, results attached:
INSERT INTO measurements (compound, label_class) VALUES
  ('c1ccc(OP(Oc2ccccc2)Oc2ccccc2)cc1', 'inactive'),
  ('c1nc[nH]n1', 'inactive');

Task item: Per the records of this test, what outcome belongs to `CCOS(=O)(=O)OCC` ?
Reply: inactive

Task item: Per the records of this test, what outcome belongs to `Cc1cccc(N)c1` ?
Reply: inactive

Task item: Per the records of this test, what outcome belongs to `O=[N+]([O-])c1ccccc1` ?
Reply: inactive

Task item: Per the records of this test, what outcome belongs to `CCCN(CCC)c1c([N+](=O)[O-])cc(C(C)C)cc1[N+](=O)[O-]` ?
Reply: inactive

Task item: Per the records of this test, what outcome belongs to `Cc1ccc([N+](=O)[O-])cc1C` ?
Reply: inactive
